Source: patent US11168073B2

- MEASURED ON: recombinant human MAO-B (monoamine oxidase-B) (Homo sapiens, UniProt P27338)
- Construct: purchased Sigma-Aldrich
- Sequence (P27338 whole entry): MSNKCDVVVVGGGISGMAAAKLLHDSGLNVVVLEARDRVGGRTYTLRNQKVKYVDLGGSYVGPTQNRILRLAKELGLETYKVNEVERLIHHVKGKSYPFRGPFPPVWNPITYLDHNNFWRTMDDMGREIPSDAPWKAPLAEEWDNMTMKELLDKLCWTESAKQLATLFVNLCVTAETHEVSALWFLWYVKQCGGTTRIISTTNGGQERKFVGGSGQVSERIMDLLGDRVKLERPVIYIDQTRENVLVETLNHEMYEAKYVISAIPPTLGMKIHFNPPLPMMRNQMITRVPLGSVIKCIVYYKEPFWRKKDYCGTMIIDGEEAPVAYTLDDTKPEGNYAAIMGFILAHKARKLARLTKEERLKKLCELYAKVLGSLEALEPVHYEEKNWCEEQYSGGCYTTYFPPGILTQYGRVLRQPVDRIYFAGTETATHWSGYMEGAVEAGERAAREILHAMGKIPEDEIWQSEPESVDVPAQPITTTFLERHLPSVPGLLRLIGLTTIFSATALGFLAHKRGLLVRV
- ASSAY SUMMARY: Activity evaluation on recombinant human MAO-B (Amplex Red/HRP-coupled assay, 1 mM benzylamine substrate)
- Format: biochemical
- DETAILS: 1 mM benzylamine, read-out: Inhibitory Activity (IC50, nM) MAO-B
Where a name gives a salt, the structure may show the parent alone.
Our labelling divides records by IC50 into ranges: lower range (below 600 nM), middle range (600 nM to below 20000 nM), upper range (20000 nM or more)

Tag the class for CS(=O)(=O)c1ccc(-c2cnc(-n3cnn(CC(CN)=C(F)F)c3=O)cn2)cc1 [Example 89, Trifluoroacetate]
middle range

Tag the class for CS(=O)(=O)c1ccc(-c2ccc(-n3cnn(CC(CN)=C(F)F)c3=O)cn2)cc1 [Example 38, Trifluoroacetate]
lower range

Tag the class for NCC(Cn1ncn(CCc2cccs2)c1=O)=C(F)F [Example 172, Trifluoroacetate]
upper range

Tag the class for CS(=O)(=O)c1ccc(-c2ccc(-n3cnn(CC(CN)=C(F)F)c3=O)cc2F)cc1 [Example 24, Trifluoroacetate]
middle range

Tag the class for Cc1cc(-c2ccc(-n3cnn(CC(CN)=C(F)F)c3=O)cc2F)cc2c1NC(=O)CC2 [Example 29, Trifluoroacetate]
lower range

Tag the class for CN(C)c1ccc(-c2cc(-n3cnn(CC(CN)=C(F)F)c3=O)ccn2)cn1 [Example 63, Trifluoroacetate]
middle range

Tag the class for CS(=O)(=O)c1ccc(-c2ccnc(-n3cnn(CC(CN)=C(F)F)c3=O)c2)cc1 [Example 54, Trifluoroacetate]
upper range

Tag the class for CN(C)c1ccc(-c2cccc(-n3cnn(CC(CN)=C(F)F)c3=O)c2)cn1 [Example 20, Trifluoroacetate]
upper range

Tag the class for NCC(Cn1ncn(-c2cc(-c3ccc(C(F)(F)F)nc3)ccn2)c1=O)=C(F)F [Example 56, Trifluoroacetate]
upper range

Tag the class for Cc1cc(-c2cnc(-n3cnn(CC(CN)=C(F)F)c3=O)c(F)c2)cc2c1NC(=O)CC2 [Example 86, Trifluoroacetate]
middle range

Tag the class for Cc1cc(-c2ccc(Cn3cnn(CC(CN)=C(F)F)c3=O)s2)cc2ccc(=O)[nH]c12 [Example 135, Trifluoroacetate]
upper range

Tag the class for NCC(Cn1ncn(Cc2ccc(-c3cc(F)c4c(c3)CCC(=O)N4)s2)c1=O)=C(F)F [Example 136, Trifluoroacetate]
upper range

Tag the class for NCC(Cn1ncn(Cc2ccc(C#Cc3cnc4c(c3)OCC(=O)N4)s2)c1=O)=C(F)F [Example 170, Trifluoroacetate]
middle range
